- experimental_details: In vitro plasma stability and predicted half-life (HPLC main peak area, Example 3)
- Type: in vitro ADME
- measurement_conditions: human plasma (EDTA anticoagulant), 37°C, sampled up to 24 h, predicted half-life calculated with Winolin
- Experimental: The modified peptides in this study were designed with non-natural amino acid substitutions at certain non-essential positions to enhance peptide stability and improve druggability. […] All peptide sample series were analyzed by HPLC, recording the changes in main peak areas over plasma incubation time. Predicted in vitro half-lives were calculated using the pharmacokinetic software Winolin. […]
Positions of bridges follow the written chain, without caps; N, C: chain ends. Non-standard residues stand in square brackets, D forms with d. Residues, ends and D or L forms follow the SMILES beside them. Bip = N[C@@H](Cc1ccc(-c2ccccc2)cc1)C(=O)O; Hyp = O=C(O)[C@@H]1C[C@@H](O)CN1; Nle = CCCC[C@H](N)C(=O)O; Orn = NCCC[C@H](N)C(=O)O; Aib = CC(C)(N)C(=O)O
Listed compounds paired with reported half-life at 2 mg/mL
Give your result in h as a bare value.

Before answering, review these 2 worked examples.
>  <compound>
CCCC[C@H](NC(=O)[C@@H](NC(=O)[C@H]1CSSC[C@H](NC(=O)[C@H](CO)NC(=O)CN)C(=O)N[C@@H](CO)C(=O)N[C@H]([C@H](C)O)C(=O)N2C[C@H](O)C[C@H]2C(=O)N2C[C@H](O)C[C@H]2C(=O)N[C@@H](CO)C(=O)N1)C(C)C)C(=O)N[C@@H](Cc1ccc(-c2ccccc2)cc1)C(=O)N[C@@H](CCCN)C(N)=O [AJ003-34] (H-GSCS[dT][Hyp][Hyp]S[dC]V[Nle][Bip][Orn]-NH2; disulfide 3-9)

>  <result_type>
half-life at 2 mg/mL

>  <readout_units>
h

>  <numeric_value>
61.9

$$$$
>  <compound>
CCCC[C@H](NC(=O)[C@@H](NC(=O)[C@H]1CSSC[C@H](NC(=O)[C@H](CO)NC(=O)CN)C(=O)N[C@@H](CO)C(=O)N[C@H]([C@H](C)O)C(=O)N2C[C@H](O)C[C@H]2C(=O)N2C[C@H](O)C[C@H]2C(=O)NC(C)(C)C(=O)N1)C(C)C)C(=O)N[C@@H](Cc1ccc(-c2ccccc2)cc1)C(=O)N[C@@H](CCCN)C(N)=O [AJ003-36] (H-GSCS[dT][Hyp][Hyp][Aib][dC]V[Nle][Bip][Orn]-NH2; disulfide 3-9)

>  <result_type>
half-life at 2 mg/mL

>  <readout_units>
h

>  <numeric_value>
65.3

$$$$

For the next question, use this compound.
Query: half-life at 2 mg/mL for CCCC[C@H](NC(=O)[C@@H](NC(=O)[C@H]1CSSC[C@H](NC(=O)[C@H](CO)NC(=O)CN)C(=O)N[C@@H](CO)C(=O)N[C@H]([C@H](C)O)C(=O)N2C[C@H](O)C[C@H]2C(=O)N2C[C@H](O)C[C@H]2C(=O)NC(C)(C)C(=O)N1)C(C)C)C(=O)N[C@@H](Cc1c[nH]c2ccccc12)C(=O)N[C@@H](CCCN)C(N)=O [AJ003-42] (H-GSCS[dT][Hyp][Hyp][Aib][dC]V[Nle]W[Orn]-NH2; disulfide 3-9) ?
Result: 61.4

---

Listed compounds paired with reported log10 of Kd
- system: α7 nAChR (Homo sapiens, UniProt P36544)
Positions of bridges follow the written chain, without caps; N, C: chain ends. Non-standard residues stand in square brackets, D forms with d. Residues, ends and D or L forms follow the SMILES beside them. Hyp = O=C(O)[C@@H]1C[C@@H](O)CN1; Nle = CCCC[C@H](N)C(=O)O; Orn = NCCC[C@H](N)C(=O)O; Abu = CC[C@H](N)C(=O)O; Aib = CC(C)(N)C(=O)O
Would you kindly interpret these values as log10 of Kd expressed in nM?

>  <compound>
CCCC[C@H](NC(=O)[C@@H](NC(=O)[C@H]1CSSC[C@H](NC(=O)[C@H](CO)NC(=O)CN)C(=O)N[C@@H](CO)C(=O)N[C@H]([C@H](C)O)C(=O)N2C[C@H](O)C[C@H]2C(=O)N2C[C@H](O)C[C@H]2C(=O)NC(C)(C)C(=O)N1)C(C)C)C(=O)N[C@@H](Cc1c[nH]c2ccccc12)C(=O)N[C@@H](CCCN)C(N)=O [AJ003-42] (H-GSCS[dT][Hyp][Hyp][Aib][dC]V[Nle]W[Orn]-NH2; disulfide 3-9)

>  <system>
α7 nAChR (Homo sapiens, UniProt P36544)

>  <log10 of Kd>
1.33

$$$$
>  <compound>
CCCC[C@H](NC(=O)[C@@H](NC(=O)[C@H]1CSSC[C@H](NC(=O)[C@H](CO)NC(=O)CN)C(=O)N[C@@H](CO)C(=O)N[C@H]([C@H](C)O)C(=O)N2C[C@H](O)C[C@H]2C(=O)N2C[C@H](O)C[C@H]2C(=O)NC(C)(C)C(=O)N1)C(C)C)C(=O)N[C@@H](Cc1ccccc1)C(=O)N[C@@H](CCCN)C(N)=O [AJ003-39] (H-GSCS[dT][Hyp][Hyp][Aib][dC]V[Nle]F[Orn]-NH2; disulfide 3-9)

>  <system>
α7 nAChR (Homo sapiens, UniProt P36544)

>  <log10 of Kd>
2.61

$$$$
>  <compound>
CCCC[C@H](NC(=O)[C@@H](NC(=O)[C@H]1CSSC[C@H](NC(=O)[C@H](CO)NC(=O)CN)C(=O)N[C@@H](CO)C(=O)N[C@H]([C@H](C)O)C(=O)N2C[C@H](O)C[C@H]2C(=O)N2C[C@H](O)C[C@H]2C(=O)N[C@@H](C)C(=O)N1)C(C)C)C(=O)N[C@@H](Cc1ccccc1)C(=O)N[C@@H](CCCN)C(N)=O [AJ003-38] (H-GSCS[dT][Hyp][Hyp]A[dC]V[Nle]F[Orn]-NH2; disulfide 3-9)

>  <system>
α7 nAChR (Homo sapiens, UniProt P36544)

>  <log10 of Kd>
2.27

$$$$
>  <compound>
CC(C)C[C@H](NC(=O)[C@@H](NC(=O)[C@H]1CSSC[C@H](NC(=O)[C@H](CO)NC(=O)CN)C(=O)N[C@@H](CO)C(=O)N[C@@H]([C@@H](C)O)C(=O)N2CCC[C@H]2C(=O)N2CCC[C@H]2C(=O)N[C@@H](CO)C(=O)N1)C(C)C)C(=O)N[C@@H](Cc1ccc(O)cc1)C(=O)N[C@@H](CO)C(=O)O [AJ003] (H-GSCSTPPS[dC]VLYS-OH; disulfide 3-9)

>  <system>
α7 nAChR (Homo sapiens, UniProt P36544)

>  <log10 of Kd>
2.35

$$$$

For the next question, use this compound.
Query: Value wanted: log10 of Kd (α7 nAChR (Homo sapiens, UniProt P36544)) of entry CC[C@H](NC(=O)[C@@H](NC(=O)[C@H]1CSSC[C@H](NC(=O)[C@H](CO)NC(=O)CN)C(=O)N[C@@H](CO)C(=O)N[C@H]([C@H](C)O)C(=O)N2CCC[C@H]2C(=O)N2CCC[C@H]2C(=O)N[C@@H](CO)C(=O)N1)C(C)C)C(=O)N[C@@H](Cc1ccc(O)cc1)C(=O)N[C@@H](CO)C(=O)O [AJ003-28] (H-GSCS[dT]PPS[dC]V[Abu]YS-OH; disulfide 3-9)
Result: 2.84

---

Listed compounds paired with reported half-life at 2 mg/mL
- experimental_details: In vitro plasma stability and predicted half-life (HPLC main peak area, Example 3)
- Assay type: in vitro ADME
- measurement_conditions: human plasma (EDTA anticoagulant), 37°C, sampled up to 24 h, predicted half-life calculated with Winolin
- Procedure: The modified peptides in this study were designed with non-natural amino acid substitutions at certain non-essential positions to enhance peptide stability and improve druggability. […] All peptide sample series were analyzed by HPLC, recording the changes in main peak areas over plasma incubation time. Predicted in vitro half-lives were calculated using the pharmacokinetic software Winolin. […]
Positions of bridges follow the written chain, without caps; N, C: chain ends. Non-standard residues stand in square brackets, D forms with d. Residues, ends and D or L forms follow the SMILES beside them. Hyp = O=C(O)[C@@H]1C[C@@H](O)CN1; Nle = CCCC[C@H](N)C(=O)O; Orn = NCCC[C@H](N)C(=O)O; Aib = CC(C)(N)C(=O)O
Give your result in h as a bare value.

Before answering, review these 2 worked examples.
>  <compound>
CCCC[C@H](NC(=O)[C@@H](NC(=O)[C@H]1CSSC[C@H](NC(=O)[C@H](CO)NC(=O)CN)C(=O)N[C@@H](CO)C(=O)N[C@H]([C@H](C)O)C(=O)N2C[C@H](O)C[C@H]2C(=O)N2C[C@H](O)C[C@H]2C(=O)N[C@@H](CO)C(=O)N1)C(C)C)C(=O)N[C@@H](Cc1c[nH]c2ccccc12)C(=O)N[C@@H](CCCN)C(N)=O [AJ003-40] (H-GSCS[dT][Hyp][Hyp]S[dC]V[Nle]W[Orn]-NH2; disulfide 3-9)

>  <result_type>
half-life at 2 mg/mL

>  <readout_units>
h

>  <numeric_value>
84

$$$$
>  <compound>
CCCC[C@H](NC(=O)[C@@H](NC(=O)[C@H]1CSSC[C@H](NC(=O)[C@H](CO)NC(=O)CN)C(=O)N[C@@H](CO)C(=O)N[C@H]([C@H](C)O)C(=O)N2C[C@H](O)C[C@H]2C(=O)N2C[C@H](O)C[C@H]2C(=O)N[C@@H](CO)C(=O)N1)C(C)C)C(=O)N[C@@H](Cc1ccccc1)C(=O)N[C@@H](CCCN)C(N)=O [AJ003-37] (H-GSCS[dT][Hyp][Hyp]S[dC]V[Nle]F[Orn]-NH2; disulfide 3-9)

>  <result_type>
half-life at 2 mg/mL

>  <readout_units>
h

>  <numeric_value>
71

$$$$

Query: half-life at 2 mg/mL for CCCC[C@H](NC(=O)[C@@H](NC(=O)[C@H]1CSSC[C@H](NC(=O)[C@H](CO)NC(=O)CN)C(=O)N[C@@H](CO)C(=O)N[C@H]([C@H](C)O)C(=O)N2C[C@H](O)C[C@H]2C(=O)N2C[C@H](O)C[C@H]2C(=O)NC(C)(C)C(=O)N1)C(C)C)C(=O)N[C@@H](Cc1ccccc1)C(=O)N[C@@H](CCCN)C(N)=O [AJ003-39] (H-GSCS[dT][Hyp][Hyp][Aib][dC]V[Nle]F[Orn]-NH2; disulfide 3-9) ?
Result: 43
